Taken from PubChem BioAssay (NCI).

Test system: IGROV1 ovarian
run.description: NCI-60 one-dose screen, 48 h (100 = growth as untreated, 0 = no growth, -100 = all killed)
experimental.context: 10 µM unless noted
This is part of a sample that, as a whole, favours compounds with a hit. Of some 83,000 tested, about 20% had one in any assay.
Lab note: cut-off is 20%. Strictly less in growth is label 1. Exactly 20% or more is label 0.

[in] Regarding CC1=C(C(=O)OCc2ccccc2)C(c2ccc(-n3cncn3)cc2)n2c(nc3ccccc32)N1 (configuration not stated) , kindly confirm whether its growth is beneath 20%.
[out] label 0

[in] Another molecule to check: C[C@H](Nc1nc(NCCc2ccccc2)nc2ccccc12)c1ccccc1
[out] label 1

[in] Another molecule to check: COc1c(F)ccc(C(=O)Nc2ccc3nc(NC(=O)C4CCCN(S(=O)(=O)c5ccc(Br)c(F)c5)C4)sc3c2)c1F (configuration not stated)
[out] label 0

[in] Another molecule to check: CC1(C)CC[C@]2(C(=O)Nc3ccc(F)cc3)CC[C@]3(C)C(=CCC4[C@@]5(C)C[C@@H](O)[C@H](O)[C@@](C)(CO)C5CC[C@]43C)C2C1 (some centres not stated)
[out] label 0

[in] Another molecule to check: COc1ccc(-c2nc3cc(C)ccc3n2CC(=O)N=Nc2c(O)[nH]c3ccc(Cl)cc23)cc1
[out] label 1

[in] Another molecule to check: O=C(O)Cn1c(O)c(/C=C2/C=c3cc4c(cc3=NC2=O)OCCO4)sc1=S
[out] label 0

[in] Another molecule to check: Cn1cc(-c2cc3nc(-c4cn(C)c5ncccc45)cc(N)n3n2)c2ccccc21
[out] label 1

[in] Another molecule to check: COc1cc2oc(-c3cccc(C(=O)Nc4ccc(Cl)cc4)c3)cc(=O)c2c(OCCNC(=O)[C@H](CO)NC(=O)OC(C)(C)C)c1OC
[out] label 0

[in] Another molecule to check: COc1ccc(C(=O)/C=C/c2ccc(OC)c(OCc3ccccc3)c2)cc1OC
[out] label 0

[in] Another molecule to check: CC1(C)CC[C@]2(C(=O)O)CC[C@]3(C)C(=CCC4[C@@]5(C)C[C@@H](O)[C@@H]6OC(c7ccco7)OC[C@@]6(C)C5CC[C@]43C)C2C1 (some centres not stated)
[out] label 0

[in] Another molecule to check: NS(=O)(=O)c1ccc(-n2cc(-c3cccc(NC(=O)c4cc(Cl)cc(Cl)c4)c3)nn2)cc1
[out] label 0

[in] Another molecule to check: CC12CC[C@@H]3[C@]4(C)COC(c5c(F)cccc5F)O[C@@H]4CC[C@@]3(C)[C@@H]1CC(C1=CCOC1=O)O2 (some centres not stated)
[out] label 0

[in] Another molecule to check: COc1ccc(NC(=O)c2sc3nc(C(C)C)ccc3c2N)cc1
[out] label 0

[in] Another molecule to check: Cc1c(C(=O)NNC(=O)c2ccc(Cl)cc2)nnn1-c1ccc(Br)cc1
[out] label 0

[in] Another molecule to check: COc1ccc(C(=O)/C=C/c2cccc3ccccc23)cc1S(N)(=O)=O
[out] label 0

[in] Another molecule to check: C=C1CC[C@@H]2[C@]3(C)COC(c4cn[nH]c4-c4ccc(F)cc4)O[C@@H]3CC[C@@]2(C)[C@@H]1C/C=C1/C(=O)OCC1O (some centres not stated)
[out] label 1
